- Test system: crabgrass
- TEST_DESCRIPTION: Test B pre/postemergence crabgrass
- Format: in vivo, Digitaria sanguinalis
- CONDITION: Rate 500 g/ha, Postemergence; scale 0 to 10, 0 no effect, 10 complete control
METRIC_NAME: Crabgrass plant response rating
Form: value (number only, do not type unit).

# example entries with known answers
INSERT INTO assay_data (compound, tested_target, observed_result) VALUES
  ('Cc1nn(C)c(C)c1-n1c(=O)on(C(=O)N(c2ccccc2)C(C)C)c1=O', 'crabgrass', 9),
  ('CC(C)N(C(=O)n1oc(=O)n(Cc2cccs2)c1=O)c1ccc(F)cc1', 'crabgrass', 9),
  ('CC(C)N(C(=O)n1oc(=O)n(C2CCCCC2C(F)(F)F)c1=O)c1ccc(F)cc1 (stereo not shown)', 'crabgrass', 8),
  ('CC(C)N(C(=O)n1oc(=O)n(C(C)C(=O)c2ccccc2)c1=O)c1ccc(F)cc1 (stereo not shown)', 'crabgrass', 0),
  ('CCn1c(=O)on(C(=O)N(c2ccc(Cl)cc2)C(C)C)c1=O', 'crabgrass', 9);

# input Any idea what Crabgrass plant response rating was measured for CC(C)N(C(=O)n1oc(=O)n(C2CCCCC2)c1=O)c1ccc(Cl)cc1 ?
# output 9

# input Entry CC(C)N(C(=O)n1oc(=O)n(CC(=O)OC(C)(C)C)c1=O)c1ccc(F)cc1 please
# output 3

* * *

- System: giant foxtail
- TEST_DESCRIPTION: Test B pre/postemergence giant foxtail
- Assay type: in vivo, Setaria faberii
- CONDITION: Preemergence, Rate 250 g/ha; scale 0 to 10, 0 is no effect, 10 is complete control
Below, each of the compounds is paired with its reported Giant foxtail plant response rating value.
Enter a number only.

// worked examples, Giant foxtail plant response rating included
INSERT INTO measurements (compound, observed_result) VALUES
  ('COC(=O)C(C)n1c(=O)on(C(=O)N(c2ccc(F)cc2F)C(C)C)c1=O (centres unmarked)', 3),
  ('C=CC[Si](C)(C)Cn1c(=O)on(C(=O)N(c2ccc(F)cc2)C(C)C)c1=O', 10),
  ('CC(C)N(C(=O)n1oc(=O)n(CCCl)c1=O)c1ccc(Cl)cc1', 10),
  ('COC(CCl)n1c(=O)on(C(=O)N(c2ccc(Cl)cc2)C(C)C)c1=O (centres unmarked)', 10),
  ('CC(C)N(C(=O)n1oc(=O)n(CCC[Si](C)(C)C)c1=O)c1ccc(F)cc1', 0);

# input Lookup: Giant foxtail plant response rating / giant foxtail / CC(C)N(C(=O)n1oc(=O)n(CNC(=O)c2ccccc2)c1=O)c1ccc(F)cc1
# output 5

# input Please give the result for CC(C)N(C(=O)n1oc(=O)n(C(C)CCl)c1=O)c1ccc(F)cc1F (centres unmarked) too.
# output 10

# input Ok, now CC(C)N(C(=O)n1oc(=O)n(C(C)C2CC2)c1=O)c1ccc(F)cc1 (centres unmarked)
# output 10

* * *

- System: rape
- TEST_DESCRIPTION: Test B pre/postemergence rape
- Assay type: in vivo, Brassica napus
- CONDITION: Preemergence, Rate 250 g/ha; scale 0 to 10, 0 is no effect, 10 is complete control
METRIC_NAME: Rape plant response rating
Respond numerically, and do not add a unit to the figure.

INSERT INTO results (compound, tested_target, observed_result) VALUES
  ('CC(C)N(C(=O)n1oc(=O)n(CC(F)(F)F)c1=O)c1ccc(F)cc1', 'rape', 7),
  ('COC(OC)C(C)n1c(=O)on(C(=O)N(c2ccc(F)cc2F)C(C)C)c1=O (stereo not shown)', 'rape', 0),
  ('C=CCn1c(=O)on(C(=O)N(c2ccc(F)cc2)C2CCC2)c1=O', 'rape', 2);

Moving on to the next compound.
# input What measured Rape plant response rating is associated with COc1nc(OC)nc(N(C(=O)n2oc(=O)n(C(C)C)c2=O)C(C)C)n1 on rape?
# output 0

* * *

Each entry below lists one item and its recorded Morningglory plant response rating value.
- Tested on: morningglory
- TEST_DESCRIPTION: Test B pre/postemergence morningglory
- Assay type: in vivo, Ipomoea hederacea
- CONDITION: Postemergence, Rate 250 g/ha; scale of 0 to 10, 0 is no effect, 10 is complete control
API doc: respond with a numeric literal and nothing else, no unit.

INSERT INTO results (compound, metric_name, observed_result) VALUES
  ('CC(C)N(C(=O)n1oc(=O)n(CC(C)[N+](=O)[O-])c1=O)c1ccccc1 (stereo not shown)', 'Morningglory plant response rating', 2),
  ('CC(=O)OCC(CCl)n1c(=O)on(C(=O)N(c2ccc(F)cc2)C(C)C)c1=O (stereo not shown)', 'Morningglory plant response rating', 0);

# input I am curious: what Morningglory plant response rating value has been reported for CC(C)N(C(=O)n1oc(=O)n(CCCC#N)c1=O)c1ccc(F)cc1 ?
# output 2

# input Now this one: CC(C)N(C(=O)n1oc(=O)n(C(CCl)CCl)c1=O)c1ccc(F)cc1
# output 8

* * *

Reported B. signalgrass plant response rating values follow for various compounds
- System: surinam grass
- TEST_DESCRIPTION: Test B pre/postemergence surinam grass
- Type: in vivo, Brachiaria decumbens
- CONDITION: Postemergence, Rate 500 g/ha; scale of 0 to 10 where 0 is no effect and 10 is complete control

INSERT INTO measurements (compound, tested_target, observed_result) VALUES
  ('COC(CCl)n1c(=O)on(C(=O)N(c2ccc(Cl)cc2)C(C)C)c1=O (stereo not shown) [Compound 458]', 'surinam grass', 3),
  ('COCC(OC)n1c(=O)on(C(=O)N(c2ccc(F)cc2)C(C)C)c1=O (stereo not shown) [Compound 446]', 'surinam grass', 8),
  ('CC(C)N(C(=O)n1oc(=O)n(C2CCCCCC2)c1=O)C1=CCCCC1 [Compound 428]', 'surinam grass', 0);

// below: B. signalgrass plant response rating requested for another compound
# input Record COC(OC)C(C)n1c(=O)on(C(=O)N(c2ccc(F)cc2F)C(C)C)c1=O (stereo not shown) [Compound 472] : what is its B. signalgrass plant response rating with surinam grass?
# output 5

* * *

- Tested on: soybean
- TEST_DESCRIPTION: Test B pre/postemergence soybean
- Assay type: in vivo, Glycine max
- CONDITION: Rate 500 g/ha, Postemergence; scale 0 to 10, 0 is no effect, 10 is complete control
METRIC_NAME: Soybean plant response rating
// return just the number, without any unit appended

INSERT INTO assay_data (molecule, metric_name, observed_result) VALUES
  ('COC(=O)C(c1ccccc1)n1c(=O)on(C(=O)N(c2ccc(F)cc2)C(C)C)c1=O (centres unmarked)', 'Soybean plant response rating', 2),
  ('CC(C)N(C(=O)n1oc(=O)n(CCC(=O)N(C)C)c1=O)c1ccccc1', 'Soybean plant response rating', 4),
  ('CCC(C)n1c(=O)on(C(=O)N(c2ccc(F)cc2)C(C)C)c1=O (centres unmarked)', 'Soybean plant response rating', 7);

# input Endpoint output: Soybean plant response rating of C#CCCn1c(=O)on(C(=O)N(c2ccc(F)cc2F)C(C)C)c1=O . Value?
# output 5

# input Note, next up: C#CCn1c(=O)on(C(=O)N(c2ccc(F)cc2)C(C)C)c1=O
# output 4

* * *

Catalogue of Nutsedge plant response rating values
- Tested on: purple nutsedge
- TEST_DESCRIPTION: Test B pre/postemergence purple nutsedge
- Type: in vivo, Cyperus rotundus
- CONDITION: Rate 125 g/ha; Postemergence; scale 0 to 10, 0 no effect, 10 complete control
Enter the number alone.

Take a look at these entries with their results.
INSERT INTO measurements (compound_structure, observed_result) VALUES
  ('Cc1ccccc1-n1c(=O)on(C(=O)N(C2=CCOCC2)C(C)C)c1=O', 0),
  ('Cc1cccc(C)c1-n1c(=O)on(C(=O)N(c2ccccc2)C(C)C)c1=O', 0),
  ('CCc1ccccc1-n1c(=O)on(C(=O)N(c2ccc(F)cc2F)C(C)C)c1=O', 0),
  ('Cc1ccccc1-n1c(=O)on(C(=O)N(c2ccc(C#N)cc2)C(C)C)c1=O', 0);

# input What reported Nutsedge plant response rating corresponds to Cc1ccccc1-n1c(=O)on(C(=O)N(c2ccc(F)cc2)C(C)C)c1=O on purple nutsedge?
# output 0

* * *

- Test system: blackgrass
- TEST_DESCRIPTION: Test B pre/postemergence blackgrass
- Format: in vivo, Alopecurus myosuroides
- CONDITION: Postemergence, Rate 250 g/ha; scale 0 to 10, 0 no effect, 10 complete control
METRIC_NAME: Blackgrass plant response rating
Field format: numeric only.

INSERT INTO assay_data (compound, observed_result) VALUES
  ('CC(C)N(C(=O)n1oc(=O)n(-c2cc(Cl)cc(Cl)c2)c1=O)C1=CCOCC1', 0),
  ('Cc1nn(C)c(C)c1-n1c(=O)on(C(=O)N(c2ccc(F)cc2)C(C)C)c1=O', 7),
  ('CC(C)N(C(=O)n1oc(=O)n(C2CCCCC2)c1=O)c1ccc(F)cc1', 4),
  ('CC(C)N(C(=O)n1oc(=O)n(C2CCCCC2C(F)(F)F)c1=O)c1ccc(F)cc1 (stereo not shown)', 6),
  ('COc1ccc(-n2c(=O)on(C(=O)N(c3ccc(F)cc3)C(C)C)c2=O)c(C)c1', 1);

# input Value lookup for Blackgrass plant response rating; key = CC(C)N(C(=O)n1oc(=O)n(Cc2cccs2)c1=O)c1ccccc1
# output 4

# input Would you mind doing CCN(C(=O)n1oc(=O)n(-c2c(C)cc(C)cc2C)c1=O)C1CCCCC1 as well?
# output 0

Source listed as patent US6737383B1.
